Reference for the values: patent US20240000872A1

# Test system: Acinetobacter baumannii strains
# experimentSummary: Antibiotic susceptibility test (CLSI disk diffusion test method, read per CLSI 2016); further: key: ‘S’ means susceptible; ‘I’ means intermediate; ‘R’ means resistant
# Format: cell-based
# conditionLabel: host strain YMC15/02/T28

molecule	susceptibility category (S/I/R)
C[C@H]1COc2c(N3CCN(C)CC3)c(F)cc3c(=O)c(C(=O)O)cn1c23	R
CC(C)(O/N=C(\C(=O)N[C@@H]1C(=O)N2C(C(=O)[O-])=C(C[n+]3ccccc3)CS[C@H]12)c1csc(N)n1)C(=O)O	R
NCC[C@H](O)C(=O)N[C@@H]1C[C@H](N)[C@@H](O[C@H]2O[C@H](CN)[C@@H](O)[C@H](O)[C@H]2O)[C@H](O)[C@H]1O[C@H]1O[C@H](CO)[C@@H](O)[C@H](N)[C@H]1O	R

###

# Test system: Acinetobacter baumannii strains
# experimentSummary: Antibiotic susceptibility test (CLSI disk diffusion test method, read per CLSI 2016); further: key: ‘S’ means susceptible; ‘I’ means intermediate; ‘R’ means resistant
# Type: cell-based
# conditionLabel: host strain YMC16/12/B11422

molecule	susceptibility category (S/I/R)
CO/N=C(\C(=O)N[C@@H]1C(=O)N2C(C(=O)O)=C(COC(C)=O)CS[C@H]12)c1csc(N)n1	R
CN(C)c1ccc(O)c2c1C[C@H]1C[C@H]3[C@H](N(C)C)C(O)=C(C(N)=O)C(=O)[C@@]3(O)C(O)=C1C2=O	S
CCN1CCN(C(=O)N[C@@H](C(=O)N[C@@H]2C(=O)N3[C@@H]2SC(C)(C)[C@@H]3C(=O)O)c2ccccc2)C(=O)C1=O	R
C[C@@H](O)[C@H]1C(=O)N2C(C(=O)O)=C(SCCN=CN)C[C@H]12	R
CC(C)(O/N=C(\C(=O)N[C@@H]1C(=O)N2C(C(=O)[O-])=C(C[n+]3ccccc3)CS[C@H]12)c1csc(N)n1)C(=O)O	R
NCC[C@H](O)C(=O)N[C@@H]1C[C@H](N)[C@@H](O[C@H]2O[C@H](CN)[C@@H](O)[C@H](O)[C@H]2O)[C@H](O)[C@H]1O[C@H]1O[C@H](CO)[C@@H](O)[C@H](N)[C@H]1O	R
C[C@H]1COc2c(N3CCN(C)CC3)c(F)cc3c(=O)c(C(=O)O)cn1c23	R
C[C@@H](O)[C@H]1C(=O)N2C(C(=O)O)=C(S[C@@H]3CN[C@H](C(=O)N(C)C)C3)[C@H](C)[C@H]12	R
CN(C)c1cc(NC(=O)CNC(C)(C)C)c(O)c2c1C[C@H]1C[C@H]3[C@H](N(C)C)C(O)=C(C(N)=O)C(=O)[C@@]3(O)C(O)=C1C2=O	S

###

# Test system: Acinetobacter baumannii strains
# experimentSummary: Antibiotic susceptibility test (CLSI disk diffusion test method, read per CLSI 2016); further: key: ‘S’ means susceptible; ‘I’ means intermediate; ‘R’ means resistant
# Format: cell-based
# conditionLabel: host strain YMC16/01/R380
endpoint: susceptibility category (S/I/R)

> print(dat)
                                   molecule                      studytarget  result
1  CC(C)(O/N=C(\C(=O)N[C@@H]1C(=O)N2C(C(=O)[O-])=C(C[n+]3ccccc3)CS[C@H]12)c1csc(N)n1)C(=O)O  Acinetobacter baumannii strains       R
2  CO/N=C(\C(=O)N[C@@H]1C(=O)N2C(C(=O)O)=C(COC(C)=O)CS[C@H]12)c1csc(N)n1  Acinetobacter baumannii strains       R
3  CN(C)c1cc(NC(=O)CNC(C)(C)C)c(O)c2c1C[C@H]1C[C@H]3[C@H](N(C)C)C(O)=C(C(N)=O)C(=O)[C@@]3(O)C(O)=C1C2=O  Acinetobacter baumannii strains       S
4  C[C@@H](O)[C@H]1C(=O)N2C(C(=O)O)=C(S[C@@H]3CN[C@H](C(=O)N(C)C)C3)[C@H](C)[C@H]12  Acinetobacter baumannii strains       R
5  C[C@H]1COc2c(N3CCN(C)CC3)c(F)cc3c(=O)c(C(=O)O)cn1c23  Acinetobacter baumannii strains       R
6  CCN1CCN(C(=O)N[C@@H](C(=O)N[C@@H]2C(=O)N3[C@@H]2SC(C)(C)[C@@H]3C(=O)O)c2ccccc2)C(=O)C1=O  Acinetobacter baumannii strains       R
7  CN(C)c1ccc(O)c2c1C[C@H]1C[C@H]3[C@H](N(C)C)C(O)=C(C(N)=O)C(=O)[C@@]3(O)C(O)=C1C2=O  Acinetobacter baumannii strains       S
8  C[C@@H](O)[C@H]1C(=O)N2C(C(=O)O)=C(SCCN=CN)C[C@H]12  Acinetobacter baumannii strains       R
